test system: Staphylococcus aureus; assay: Antimicrobial activity against Staphylococcus aureus YZSA-21 harboring erythromycin resistance rRNA methylase C assessed as inhibition of visible growth of bacteria incubated for 20 hrs by broth microdilution method; type: functional
MIC reference
Number in µg/mL, nothing else.

Previously resolved entries follow.
Fill in: Staphylococcus aureus MIC for COc1ccc2nc3c(c(C(=O)O)c2c1)CC(C)C/C3=C\c1cccc(-c2ccc(Cl)c(C(F)(F)F)c2)c1 (racemic) = 2

Log: Staphylococcus aureus, compound C[C@H]1c2cccc(O)c2C(=O)C2=C(O)[C@]3(O)C(=O)C(C(N)=O)=C(O)[C@@H](N(C)C)[C@@H]3[C@@H](O)[C@@H]21 [DOXYCYCLINE ANHYDROUS] , MIC = 0.25

Assay Staphylococcus aureus, sample CNC(C)[C@@H]1CC[C@@H](N)[C@@H](O[C@H]2[C@H](O)[C@@H](O[C@H]3OC[C@](C)(O)[C@H](NC)[C@H]3O)[C@H](N)C[C@@H]2N)O1.CN[C@@H]1[C@@H](O)[C@@H](O[C@@H]2[C@@H](O)[C@H](O[C@H]3O[C@H](C(C)N)CC[C@H]3N)[C@@H](N)C[C@H]2N)OC[C@]1(C)O.CN[C@@H]1[C@@H](O)[C@@H](O[C@@H]2[C@@H](O)[C@H](O[C@H]3O[C@H](CN)CC[C@H]3N)[C@@H](N)C[C@H]2N)OC[C@]1(C)O (stereo partly specified) , MIC read: 0.5

Measured MIC for this entry CCCCCCc1ccc(-c2ccc(/C=C3\CC(C)Cc4c3nc3ccc(OC)cc3c4C(=O)O)cn2)cc1 (racemic) on Staphylococcus aureus: 4

Log: Staphylococcus aureus, compound CC1C/C(=C\c2ccc(-c3ccc(Cl)c(C(F)(F)F)c3)s2)c2nc3ccccc3c(C(=O)O)c2C1 (racemic) , MIC = 1

Simply: CC1(C)S[C@@H]2[C@H](NC(=O)[C@H](N)c3ccccc3)C(=O)N2[C@H]1C(=O)O [AMPICILLIN] , Staphylococcus aureus, MIC = 1

Observed MIC on Staphylococcus aureus, entry CO[C@@]1(NC(=O)Cc2cccs2)C(=O)N2C(C(=O)O)=C(COC(N)=O)CS[C@@H]21 [CEFOXITIN] , equals 4

Param item: O=C(O)c1cn(C2CC2)c2cc(N3CCNCC3)c(F)cc2c1=O [CIPROFLOXACIN] ; param system: Staphylococcus aureus; output MIC: 0.5

Now, please, on to the next compound.
# lookup: CC(=O)NC[C@H]1CN(c2ccc(N3CCOCC3)c(F)c2)C(=O)O1 [LINEZOLID] on Staphylococcus aureus, MIC = 1
